Reported Transcription activity E (%) is given for each of the following compounds.
Biological target: Pol II (Homo sapiens)
Construct: HeLaScribe® nuclear extract containing Pol II and all other transcription factors; purchased Promega; host or cells: HeLa nuclear extract (endogenous protein)
Experiment: In vitro transcription runoff assay using HeLaScribe nuclear extract
Type: biochemical
Details: 30 nM; mean ± standard deviation
Protocol: (h) In vitro transcription assay of synthetic amanitins containing analogs of Hyp: Primers were purchased from IDT via standard phosphoramidite chemistry. dNTP and rNTP were purchased from Thermofisher. […] The DNA template for transcription runoff was synthesized by PCR with template pAcGFP-N1, and primers P1 and P2. […] Dosimetry was calculated by ImageJ, and the 3 parameter logistic fit was completed by Origin 2019 (OriginLab). […]
Starred links: 1 amine or outer side, 2 acyl side, 3 side chain; linkers in the order of their positions; H or OH if unused. Positions of bridges follow the written chain, without caps; N, C: chain ends. Non-standard residues stand in square brackets, D forms with d. Residues, ends and D or L forms follow the SMILES beside them. Trp(2-yl) = O=C([C@H](Cc1c([*:3])[nH]c2ccccc12)N[*:1])[*:2]; Pro(trans-4-guanidino) = N=C(N)N[C@H]1CN[C@H](C(=O)O)C1; Pro(4R-SH) = O=C([C@@H]1C[C@@H](S[*:3])CN1[*:1])[*:2]; Ile(4R-OH,5-OH) = C[C@H]([C@H](N)C(=O)O)[C@@H](O)CO; X1 = N#C[C@@H]1C[C@@H](C(=O)[*:2])N([*:1])C1; Pro(4R-NH2) = N[C@H]1CN[C@H](C(=O)O)C1
Kindly answer with a numeric value in %, unit omitted.

{"compound": "CC[C@H](C)[C@@H]1NC(=O)CNC(=O)[C@@H]2Cc3c([nH]c4ccccc34)SC[C@H](NC(=O)CNC1=O)C(=O)N[C@@H](CC(N)=O)C(=O)N1C[C@H](N)C[C@H]1C(=O)N[C@@H]([C@@H](C)[C@@H](O)CO)C(=O)N2 [Compound 6, NH2-Pro-amanitin] (cyclo(CN[Pro(4R-NH2)][Ile(4R-OH,5-OH)][Trp(2-yl)]GIG); thioether 1-5)", "test system": "Pol II (Homo sapiens)", "Transcription activity E (%)": 91.7}
{"compound": "CC[C@H](C)[C@@H]1NC(=O)CNC(=O)[C@@H]2Cc3c([nH]c4ccccc34)SC[C@H](NC(=O)CNC1=O)C(=O)N[C@@H](CC(N)=O)C(=O)N1C[C@H](C#N)C[C@H]1C(=O)N[C@@H]([C@@H](C)[C@@H](O)CO)C(=O)N2 [Compound 4, CN-Pro-amanitin] (cyclo(CN[X1][Ile(4R-OH,5-OH)][Trp(2-yl)]GIG); thioether 1-5)", "test system": "Pol II (Homo sapiens)", "Transcription activity E (%)": 64.8}
{"compound": "CC[C@H](C)[C@@H]1NC(=O)CNC(=O)[C@@H]2Cc3c([nH]c4ccccc34)SC[C@H](NC(=O)CNC1=O)C(=O)N[C@@H](CC(N)=O)C(=O)N1C[C@H](NC(=N)N)C[C@H]1C(=O)N[C@@H]([C@@H](C)[C@@H](O)CO)C(=O)N2 [Compound 7, Gdn-Pro-amanitin] (cyclo(CN[Pro(trans-4-guanidino)][Ile(4R-OH,5-OH)][Trp(2-yl)]GIG); thioether 1-5)", "test system": "Pol II (Homo sapiens)", "Transcription activity E (%)": 77.3}

Could you now consider this next compound?
Entry CC[C@H](C)[C@@H]1NC(=O)CNC(=O)[C@@H]2Cc3c([nH]c4ccccc34)SC[C@H](NC(=O)CNC1=O)C(=O)N[C@@H](CC(N)=O)C(=O)N1C[C@H](S)C[C@H]1C(=O)N[C@@H]([C@@H](C)[C@@H](O)CO)C(=O)N2 [Compound 5, SH-Pro-amanitin] (cyclo(CN[Pro(4R-SH)][Ile(4R-OH,5-OH)][Trp(2-yl)]GIG); thioether 1-5) , system Pol II (Homo sapiens): what Transcription activity E (%) was measured?
99.6

Data credit: patent US20240082416A1
